Just for reference, PubChem BioAssay (NCATS) is where these values come from.

- methodDescription: Quantitative highthroughput screen to assess conditional lethalithy of NOMO1 cells grown in RPMI1640 with untreated serum (RPMI+s) (AID 1963876); also: nearly all actives have a fitted effect of over 35% in size
- condition: NOMO1 AML cells in RPMI+serum, CellTiter-Glo viability, 48 h; series mostly up to 45.8 µM
Records with an inconclusive call do not appear. Calls of active or inactive are those of the source. Calls follow the shape of the dose curve; as a rule, active = well fitted cell-killing curve with a large enough effect; inconclusive = small, poorly fitted or top-dose-only effect; inactive = flat fitted curve, though single readings scatter.
Would you mind answering with one of these outcomes? active, inactive

molecule="COC(=O)Nc1nc2ccc(S(=O)c3ccccc3)cc2[nH]1 (stereo not given)" qualitativelabel=inactive
molecule=Clc1ccc2c(c1)C(N1CCNCC1)=Nc1ccccc1O2 qualitativelabel=inactive

Query: Identify the outcome logged in this assay for the molecule shown: `Cc1ccc(S(=O)(=O)Nc2nc3ccccc3nc2Nc2ccc3nsnc3c2)cc1`
Reply: active

Query: Identify the outcome logged in this assay for the molecule shown: `C[C@H](CCC(=O)O)[C@H]1CC[C@H]2[C@H]3[C@@H](CC[C@]12C)[C@@]1(C)CC[C@@H](O)C[C@H]1C[C@@H]3O`
Reply: inactive
